# procedureText: APR_HepG2_MitoMass_72hr: Apredica 72-hour HepG2 Assay for Mitochondrial Mass (AID 2282924);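 also: MitoTracker Red CMXRos stain intensity per cell imaged as mitochondrial mass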
# experimentalSetup: high-content imaging, actives raise or lower the signal
Calls of active or inactive are those of the source. The calls were made as follows: active = hit-call score of the fitted dose curve at least 0.9, where 1 is the maximum; inactive = score below 0.9.
Hello, when you answer, please use one of the following outcomes: yes (1) = active, no (0) = inactive

compound: CCN(Cc1c(F)cccc1Cl)c1c([N+](=O)[O-])cc(C(F)(F)F)cc1[N+](=O)[O-]
labelValue: no (0)
//
compound: C[C@]12C[C@H](O)[C@H]3[C@@H](CCC4=CC(=O)CC[C@@]43C)[C@@H]1CC[C@@H]2C(=O)CO
labelValue: yes (1)
//
compound: CCSC(=O)N(CC(C)C)CC(C)C
labelValue: no (0)

input: In this assay, the call recorded for `COC(=O)c1ccccc1C(=O)O` was what?
output: no (0)

input: In this assay, the call recorded for `S=C([S-])NCCNC(=S)[S-].[Mn+2]` was what?
output: yes (1)

input: In this assay, the call recorded for C[C@]12CC[C@@H]3c4ccc(O)cc4C[C@@H](CCCCCCCCCS(=O)CCCC(F)(F)C(F)(F)F)[C@H]3[C@@H]1CC[C@@H]2O (stereo partly specified) was what?
output: no (0)

input: In this assay, the call recorded for CCC(O)=C1C(=O)CC(C(=O)O)CC1=O (stereo unspecified) was what?
output: no (0)

input: In this assay, the call recorded for `OB(O)O` was what?
output: no (0)

input: In this assay, the call recorded for `CCCOC(=O)c1ccc(C(=O)OCCC)nc1` was what?
output: no (0)

input: In this assay, the call recorded for `CCCCOCCOCCOCc1cc2c(cc1CCC)OCO2` was what?
output: no (0)

input: In this assay, the call recorded for CCOC(=O)C(C)Oc1ccc(Oc2cnc3cc(Cl)ccc3n2)cc1 (stereo unspecified) was what?
output: no (0)

====

# procedureText: BSK_3C_Vis: BioMAP Diversity Plus: 3C Assay for Morphology Visualization (AID 2283025);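 also: fitted both ways so gain or loss versus DMSO counts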
# experimentalSetup: primary human endothelial cells (HUVEC)
# Protocol: BSK_3C is a cell-based, multiplexed-readout assay that uses umbilical vein endothelium, a human vascular primary cell, with measurements taken at 24 hours after chemical dosing in a 96-well plate.BSK_3C_Vis is an assay component measured in the BSK_3C assay. It measures NA related to cell morphology using light microscopy technology.Data from the assay component BSK_3C_Vis was analyzed into 1 assay endpoint. […]
Calls of active or inactive are those of the source. How the source made its calls: active means hit-call score of the fitted dose curve at least 0.9, where 1 is the maximum; inactive means score below 0.9.
Hello, when you answer, please use one of the following outcomes: TRUE for active, FALSE for inactive

input: In this assay, the call recorded for `CCNc1nc(N)nc(Cl)n1` was what?
output: FALSE

input: In this assay, the call recorded for `COC(=O)c1ccc(I)cc1S(=O)(=O)NC(=O)Nc1nc(C)nc(OC)n1` was what?
output: FALSE

====

# Read-out: xenobiotic metabolism (CYP1A1), CYP1A1 (gene 1543)
# procedureText: CLD_CYP1A1_24hr: CellzDirect (CLD) Gene Expression Assay for xenobiotic metabolism (CYP1A1) at 24 hours (AID 2283673);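 also: CYP1A1 mRNA level by quantitative nuclease protection with chemiluminescence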
Inconclusive results are not listed. Activity calls are given as the source filed them. Rule for the calls: active = hit-call score of the fitted dose curve at least 0.9, where 1 is the maximum; inconclusive = response in the unintended direction; inactive = score below 0.9.
Hello, when you answer, please use one of the following outcomes: T for active, F for inactive

A selection of reference data follows.
molecule: Oc1ccc(C(c2ccc(O)cc2)C(Cl)(Cl)Cl)cc1
labelValue: F

molecule: CCN(Cc1c(F)cccc1Cl)c1c([N+](=O)[O-])cc(C(F)(F)F)cc1[N+](=O)[O-]
labelValue: T

input: In this assay, the call recorded for `COC(=O)c1c(Cl)nn(C)c1S(=O)(=O)NC(=O)Nc1nc(OC)cc(OC)n1` was what?
output: F

input: In this assay, the call recorded for `COC(=O)c1cccc(C)c1S(=O)(=O)NC(=O)Nc1nc(OCC(F)(F)F)nc(N(C)C)n1` was what?
output: T

input: In this assay, the call recorded for `CN(C)C(=O)Nc1ccc(Cl)c(Cl)c1` was what?
output: T

input: In this assay, the call recorded for `S=C([S-])NCCNC(=S)[S-].[Mn+2]` was what?
output: F

input: In this assay, the call recorded for `CCOC(=O)NCCOc1ccc(Oc2ccccc2)cc1` was what?
output: F

input: In this assay, the call recorded for `CCNc1nc(N)nc(Cl)n1` was what?
output: F

input: In this assay, the call recorded for `N#CSCSc1nc2ccccc2s1` was what?
output: T

input: In this assay, the call recorded for CC1(C)C(C=C(Cl)Cl)C1C(=O)OCc1cccc(Oc2ccccc2)c1 (stereo unspecified) was what?
output: F

input: In this assay, the call recorded for `CCCCCOC(=O)COc1cc(N2C(=O)C3=C(CCCC3)C2=O)c(F)cc1Cl` was what?
output: F

====

# Read-out: Glutamate-cysteine ligase regulatory (GCLM), GCLM (gene 2730)
# procedureText: LTEA_HepaRG_GCLM: Life Technologies and Expression Analysis (LTEA) Assay for Glutamate-cysteine ligase regulatory (GCLM) using HepaRG (AID 2283500)
# experimentalSetup: mRNA level, 48 h; actives raise or lower the signal
The source made the active and inactive calls. The calls were made as follows: active = hit-call score of the fitted dose curve at least 0.9, where 1 is the maximum; inactive = score below 0.9.
measuredMetric: AC50

Below: 4 compounds and their reported AC50.
compound: CCCCC(CC)COC(=O)c1ccccc1C(=O)O (stereo not given)
AC50: inactive
//
compound: CCCCOC(=O)C(C)Oc1ccc(Oc2ccc(C(F)(F)F)cn2)cc1 (stereo not given)
AC50: inactive
//
compound: CSC(=O)c1cccc2nnsc12
AC50: inactive
//
compound: O=C(c1ccc(O)cc1O)c1ccc(O)cc1O
AC50: inactive

Input `CC(C)(C)[C@@H](O)[C@@H](Cc1ccc(Cl)cc1)n1cncn1` . Output AC50: inactive

Input `COC(=O)c1ccc(I)cc1S(=O)(=O)NC(=O)Nc1nc(C)nc(OC)n1` . Output AC50: inactive

====

# procedureText: APR_HepG2_MitoticArrest_72hr: Apredica 72-hour HepG2 Assay for Mitotic Arrest (AID 2282918)
# experimentalSetup: high-content imaging, actives raise or lower the signal
Activity calls are given as the source filed them. The calls were made as follows: active = hit-call score of the fitted dose curve at least 0.9, where 1 is the maximum; inactive = score below 0.9.
Hello, when you answer, please use one of the following outcomes: Yes = active, No = inactive

A selection of reference data follows.
smilesEntry: c1ccc2[nH]c(-c3cscn3)nc2c1
labelValue: No
--
smilesEntry: CCNc1nc(N)nc(Cl)n1
labelValue: No
--
smilesEntry: COc1nc(C)nc(NC(=O)NS(=O)(=O)c2ccccc2OCCCl)n1
labelValue: No
--
smilesEntry: N#CSCSc1nc2ccccc2s1
labelValue: No
--
smilesEntry: CCOC(=O)COc1cc(-n2ncc(C(F)(F)F)c(C)c2=O)c(F)cc1Cl
labelValue: No
--
smilesEntry: CC(C)CCCCCCc1ccc(O)cc1
labelValue: Yes

input: In this assay, the call recorded for `CC(=O)[C@H]1CC[C@H]2[C@@H]3CCC4=CC(=O)CC[C@]4(C)[C@H]3CC[C@]12C` was what?
output: Yes

====

# procedureText: STM_H9_CystineISnorm_perc: Stemina devTOX quickPredict H9 human embryonic stem cell (hESC)-based Assay for Cystine (CYSS) Metabolite Biomarker, Normalized (AID 2283713)
Activity calls are given as the source filed them. Rule for the calls: active = hit-call score of the fitted dose curve at least 0.9, where 1 is the maximum; inactive = score below 0.9.
measuredMetric: AC50

Below: 5 compounds and their reported AC50.
compound: CCCCOC(=O)C(C)Oc1ccc(Oc2ccc(C(F)(F)F)cn2)cc1 (configuration not stated)
AC50: inactive
--
compound: O=C(Nc1ccc([N+](=O)[O-])cc1Cl)c1cc(Cl)ccc1O
AC50: inactive
--
compound: CCN(Cc1c(F)cccc1Cl)c1c([N+](=O)[O-])cc(C(F)(F)F)cc1[N+](=O)[O-]
AC50: inactive
--
compound: C=CCOC(Cn1ccnc1)c1ccc(Cl)cc1Cl (configuration not stated)
AC50: inactive
--
compound: CC(C)CCCCCCc1ccc(O)cc1
AC50: 70 µM (active)

Input `OB(O)O` . Output AC50: inactive

Input `C#CCOC(=O)[C@@H](C)Oc1ccc(Oc2ncc(Cl)cc2F)cc1` . Output AC50: 11.1 µM (active)

Input `CCNc1nc(N)nc(Cl)n1` . Output AC50: inactive

====

# procedureText: STM_H9_OrnCyssISnorm_ratio: Stemina devTOX quickPredict H9 human embryonic stem cell (hESC)-based Assay for Ornithine (ORN):Cystine (CYSS) Ratio (AID 2283714)
Records with an inconclusive call do not appear. Active and inactive are the calls of the source. The calls were made as follows: active = hit-call score of the fitted dose curve at least 0.9, where 1 is the maximum; inconclusive = response in the unintended direction; inactive = score below 0.9.
Hello, when you answer, please use one of the following outcomes: Y (active), N (inactive)

A selection of reference data follows.
compound: C[C@]12C[C@H](O)[C@H]3[C@@H](CCC4=CC(=O)CC[C@@]43C)[C@@H]1CC[C@@H]2C(=O)CO
labelValue: Y
//
compound: CC(C)(C)[C@@H](O)[C@@H](Cc1ccc(Cl)cc1)n1cncn1
labelValue: Y
//
compound: S=C(S)NCCNC(=S)S.[Mn+2].[S-]C([S-])=NCCN=C([S-])[S-].[Zn+2]
labelValue: N
//
compound: CCSC(=O)N(CC(C)C)CC(C)C
labelValue: N
//
compound: CC(C)(c1ccc(O)cc1)c1ccc(O)cc1
labelValue: N

input: In this assay, the call recorded for CCCCOC(=O)C(C)Oc1ccc(Oc2ccc(C(F)(F)F)cn2)cc1 (centres undefined) was what?
output: N

input: In this assay, the call recorded for `CCNc1nc(N)nc(Cl)n1` was what?
output: N

input: In this assay, the call recorded for `CN(C)C(=O)Nc1ccc(Cl)c(Cl)c1` was what?
output: Y

input: In this assay, the call recorded for `CCN(Cc1c(F)cccc1Cl)c1c([N+](=O)[O-])cc(C(F)(F)F)cc1[N+](=O)[O-]` was what?
output: N

input: In this assay, the call recorded for `CCCCOC(=O)[C@@H](C)Oc1ccc(Oc2ccc(C(F)(F)F)cn2)cc1` was what?
output: Y

input: In this assay, the call recorded for `N#CSCSc1nc2ccccc2s1` was what?
output: Y

input: In this assay, the call recorded for `Cc1nn(C)c(Oc2ccccc2)c1C=NOCc1ccc(C(=O)OC(C)(C)C)cc1` was what?
output: Y

input: In this assay, the call recorded for `N[C@@H](Cc1cc(I)c(Oc2ccc(O)c(I)c2)c(I)c1)C(=O)O` was what?
output: N

input: In this assay, the call recorded for `C#CCOC(=O)[C@@H](C)Oc1ccc(Oc2ncc(Cl)cc2F)cc1` was what?
output: Y
